Hello, the source for this data is paper PMC11436758, in case you need it.

- test: in vitro
- Format: cell-based
- run-conditions: African green monkey
measured-metric: CC50 at 24 h (µg/mL)
Report only the number, with the unit µg/mL understood.

Look up CC50 at 24 h of CC(C)c1cc(Cl)ccc1-c1cc(-c2nnn[nH]2)c(-c2ccc(Cl)cc2C(C)C)s1 and report it.
21

====

- System: S. aureus (MRSA)
- test: MIC, clinical and laboratory strains
- Type: cell-based
- run-conditions: S. aureus (MRSA) 6165
Each record here notes measured MIC.
Entry rule: numbers only, all in µg/mL.

Here is how some molecules turned out for MIC.
CC(C)c1cc(Cl)ccc1-c1cc(-c2nnn[nH]2)c(-c2ccc(Cl)cc2C(C)C)s1 ... 1
CN[C@H](CC(C)C)C(=O)N[C@H]1C(=O)N[C@@H](CC(N)=O)C(=O)N[C@H]2C(=O)N[C@H]3C(=O)N[C@H](C(=O)N[C@H](C(=O)O)c4cc(O)cc(O)c4-c4cc3ccc4O)[C@H](O)c3ccc(c(Cl)c3)Oc3cc2cc(c3O[C@@H]2O[C@H](CO)[C@@H](O)[C@H](O)[C@H]2O[C@H]2C[C@](C)(N)[C@H](O)[C@H](C)O2)Oc2ccc(cc2Cl)[C@H]1O ... 1

Next:
# return recorded MIC for entry C/C(=C\C(=O)OCCCCCCCCC(=O)O)C[C@@H]1OC[C@H](C[C@@H]2O[C@H]2[C@@H](C)[C@H](C)O)[C@@H](O)[C@H]1O
1
